molecular target: Thyrotropin receptor (Homo sapiens) (UniProt P16473); assay: qHTS assay to identify small molecule agonists of the thyroid stimulating hormone receptor (TSHR) signaling pathway (AID 1224843); settings: TSHR-HEK293 cells, cAMP HTRF, agonist mode, 30 min; series mostly up to 92.4 µM; note: nearly all actives have a fitted effect of over 45% in size
Sequence (P16473 whole entry, looked up): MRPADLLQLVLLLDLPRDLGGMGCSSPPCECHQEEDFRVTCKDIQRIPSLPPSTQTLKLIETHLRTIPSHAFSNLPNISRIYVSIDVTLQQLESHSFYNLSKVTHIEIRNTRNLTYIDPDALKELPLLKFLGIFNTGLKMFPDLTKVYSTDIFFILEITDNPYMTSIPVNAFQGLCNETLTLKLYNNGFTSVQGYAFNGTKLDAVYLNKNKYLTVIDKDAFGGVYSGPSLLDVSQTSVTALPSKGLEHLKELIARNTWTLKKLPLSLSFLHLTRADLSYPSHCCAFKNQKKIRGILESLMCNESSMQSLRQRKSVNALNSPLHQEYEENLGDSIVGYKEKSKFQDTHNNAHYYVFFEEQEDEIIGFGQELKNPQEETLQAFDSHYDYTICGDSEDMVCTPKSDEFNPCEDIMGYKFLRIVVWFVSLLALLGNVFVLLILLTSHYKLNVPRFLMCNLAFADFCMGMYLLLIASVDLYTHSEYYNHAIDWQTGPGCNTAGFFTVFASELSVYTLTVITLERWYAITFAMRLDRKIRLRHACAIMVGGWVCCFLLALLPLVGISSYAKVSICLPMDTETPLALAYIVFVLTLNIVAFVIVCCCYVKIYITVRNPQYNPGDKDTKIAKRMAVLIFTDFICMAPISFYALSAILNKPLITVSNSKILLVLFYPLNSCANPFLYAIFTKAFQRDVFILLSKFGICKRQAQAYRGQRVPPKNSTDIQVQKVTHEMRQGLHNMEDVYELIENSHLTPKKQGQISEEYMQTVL
Inconclusive results are not listed. Activity calls are given as the source filed them. Calls come from the whole dose curve.
Parameter call: string, one of 1 (active), 0 (inactive)

{"molecule": "C#CCO", "category": 0}
{"molecule": "COc1ccc2[nH]cc(CCN(C(C)C)C(C)C)c2c1", "category": 0}
{"molecule": "CC[C@]1(O)CC[C@H]2[C@@H]3CCC4=CCCC[C@@H]4[C@H]3CC[C@@]21C", "category": 1}
{"molecule": "CCOC(=O)Cc1ccccc1", "category": 0}
{"molecule": "CCC(OC(C)=O)C(CC(C)NC)(c1ccccc1)c1ccccc1 (configuration not stated)", "category": 0}
{"molecule": "COc1c2c(cc3c1OCO3)CCN(C)C2", "category": 0}

Now consider the entry below.
// query Please state the recorded outcome for this molecule: `Clc1ccc(C2(Cn3cncn3)OCCO2)c(Cl)c1`
// result 0

----------
Can you tell me max response for the items I'm about to list?
assay: qHTS RealTime-Glo MT Cell Viability Assay in HEK293 cells - 40 hour (AID 1224874); conditions: RealTime-Glo luminescence; hits give low values; note: % is set by controls: 0 for no effect and ±100 for the full control effect; nearly all actives have a fitted effect of over 50% in size
Results filed as inconclusive are left out.
Give bare numbers, in %.

Known max response results, listed for orientation:
{"compound": "COc1nc(C)nc(NC(=O)NS(=O)(=O)c2ccccc2Cl)n1", "max response / %": 1.45}
{"compound": "CCCCc1ccccc1", "max response / %": -16}
{"compound": "COP(=S)(OC)Oc1nc(Cl)c(Cl)cc1Cl", "max response / %": -0.946}
{"compound": "Cc1cccc(Cc2cnc[nH]2)c1C", "max response / %": -0.68}
{"compound": "O=c1c2ccccc2c(=O)c2c1cc(Cl)c1[nH]c3c([nH]c12)c(Cl)cc1c(=O)c2ccccc2c(=O)c13", "max response / %": 12.8}
{"compound": "O=C(Nc1ccc(F)cc1F)c1cccnc1Oc1cccc(C(F)(F)F)c1", "max response / %": 0.876}

As a next step, examine the compound that follows.
// query Given the compound CC(C)C(Br)C(=O)NC(N)=O (configuration not stated) , what is its reported max response?
// result 7.13

----------
target: Nuclear receptor subfamily 1 group I member 3 (Homo sapiens) (UniProt Q14994); assay: qHTS assay to identify small molecule agonists of the constitutive androstane receptor (CAR) signaling pathway (AID 1224839); settings: HepG2 hCAR CYP2B6-luciferase, agonist mode, 24 h; series mostly up to 92.4 µM; note: nearly all actives have a fitted effect of over 15% in size;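 for activation: HepG2 cells stably carrying human CAR and a CYP2B6 luciferase reporter; % is set by controls: 0 for no effect and ±100 for the full control effect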
Sequence (Q14994 whole entry, looked up): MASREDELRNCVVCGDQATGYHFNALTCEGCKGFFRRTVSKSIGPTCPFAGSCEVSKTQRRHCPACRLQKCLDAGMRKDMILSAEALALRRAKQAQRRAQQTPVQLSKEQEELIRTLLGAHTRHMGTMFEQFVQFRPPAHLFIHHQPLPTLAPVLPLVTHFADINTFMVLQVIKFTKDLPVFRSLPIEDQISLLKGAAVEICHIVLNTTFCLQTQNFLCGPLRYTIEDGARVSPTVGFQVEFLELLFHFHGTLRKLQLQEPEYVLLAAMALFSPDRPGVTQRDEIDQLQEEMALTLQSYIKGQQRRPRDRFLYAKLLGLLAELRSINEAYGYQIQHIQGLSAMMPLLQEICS
Records with an inconclusive call do not appear. The source made the active and inactive calls. Calls follow the shape of the dose curve; as a rule, active = well fitted activation curve with a large enough effect in the repeat runs; inconclusive = weak or mixed curves; inactive = no such curve, though single readings can be large or run the other way.
Parameter call: string, one of T = active, F = inactive

Examples from the recorded data:
{"molecule": "C[C@@H]1CC2=CC(=O)CC[C@@H]2[C@H]2CC[C@@]3(C)[C@@H](CC[C@]3(C)O)[C@@H]21", "measurement.target": "Nuclear receptor subfamily 1 group I member 3 (Homo sapiens) (UniProt Q14994)", "category": "F"}
{"molecule": "CSC1=N[C@@](C)(c2ccccc2)C(=O)N1Nc1ccccc1", "measurement.target": "Nuclear receptor subfamily 1 group I member 3 (Homo sapiens) (UniProt Q14994)", "category": "T"}
{"molecule": "C=CC(=O)[O][Sn]([CH2]CCC)([CH2]CCC)[CH2]CCC", "measurement.target": "Nuclear receptor subfamily 1 group I member 3 (Homo sapiens) (UniProt Q14994)", "category": "F"}
{"molecule": "CN(C)c1ccc(N)cc1", "measurement.target": "Nuclear receptor subfamily 1 group I member 3 (Homo sapiens) (UniProt Q14994)", "category": "T"}
{"molecule": "CSC(C)(C)/C=N/O", "measurement.target": "Nuclear receptor subfamily 1 group I member 3 (Homo sapiens) (UniProt Q14994)", "category": "F"}

// query Please state the recorded outcome for this molecule: `N#CC(C#N)=NNc1cccc(Cl)c1`
// result F

// query Please state the recorded outcome for this molecule: CCCCC(CC)COC(=O)OOC(C)(C)C (centres undefined)
// result F

// query Please state the recorded outcome for this molecule: `CN/C(=N\[N+](=O)[O-])NCc1cnc(Cl)s1`
// result F

// query Please state the recorded outcome for this molecule: `O=[N+]([O-])c1cc(C(F)(F)F)c(Cl)c([N+](=O)[O-])c1Nc1ncc(C(F)(F)F)cc1Cl`
// result F

// query Please state the recorded outcome for this molecule: `CC(C)N(C(=O)CCl)c1ccccc1`
// result F

Data provenance is PubChem BioAssay (Tox21).
